Cited source: the kinase profiling compilation of Christmann-Franck et al. (2016)

Documented inhibition across a set of molecules
target: FGFR1 (human) (UniProt P11362); conditions: compound 10.0 µM
Sequence (P11362 whole entry, looked up): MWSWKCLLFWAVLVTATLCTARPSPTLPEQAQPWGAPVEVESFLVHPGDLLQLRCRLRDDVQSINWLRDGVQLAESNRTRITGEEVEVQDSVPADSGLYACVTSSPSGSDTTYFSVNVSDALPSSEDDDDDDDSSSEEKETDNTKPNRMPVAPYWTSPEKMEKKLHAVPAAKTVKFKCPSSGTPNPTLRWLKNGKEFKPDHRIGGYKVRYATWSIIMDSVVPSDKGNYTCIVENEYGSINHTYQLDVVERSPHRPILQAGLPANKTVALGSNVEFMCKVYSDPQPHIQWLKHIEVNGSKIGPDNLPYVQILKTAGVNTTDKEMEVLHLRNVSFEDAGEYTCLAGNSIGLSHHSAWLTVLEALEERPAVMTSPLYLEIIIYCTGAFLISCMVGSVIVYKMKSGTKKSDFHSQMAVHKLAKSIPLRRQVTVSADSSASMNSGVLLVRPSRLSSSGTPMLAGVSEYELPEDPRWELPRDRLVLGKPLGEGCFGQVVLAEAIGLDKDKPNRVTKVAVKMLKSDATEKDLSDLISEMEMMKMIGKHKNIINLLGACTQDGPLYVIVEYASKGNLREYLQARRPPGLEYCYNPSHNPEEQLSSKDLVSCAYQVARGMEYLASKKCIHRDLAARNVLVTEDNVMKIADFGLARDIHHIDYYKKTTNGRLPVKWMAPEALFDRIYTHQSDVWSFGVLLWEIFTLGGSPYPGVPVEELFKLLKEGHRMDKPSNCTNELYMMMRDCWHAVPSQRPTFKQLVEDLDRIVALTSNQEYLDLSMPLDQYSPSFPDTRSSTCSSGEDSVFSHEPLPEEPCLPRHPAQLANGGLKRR
Only the number, expressed in %, is required.

Please review the entries below; each comes with its answer.
[[record]]
cpd_smiles = "COc1cc2ncnc(Nc3ccc(F)c(Cl)c3)c2cc1OCCCN1CCOCC1"
value_reported = 13

[[record]]
cpd_smiles = "O=C(c1ccc(Nc2nccc(-c3cc4ccccc4s3)n2)cc1)N1CCC(N2CCCC2)CC1"
value_reported = 30

[[record]]
cpd_smiles = "Cc1ccccc1C(=O)c1ccc(Nc2ccc(Br)cc2N)cc1Cl"
value_reported = 11

[[record]]
cpd_smiles = "Cc1cc(C)c(/C=C2\\C(=O)Nc3ccccc32)[nH]1"
value_reported = 22

[[record]]
cpd_smiles = "Cn1cnc2c(NCc3ccccc3)nc(NCCO)nc21"
value_reported = 13


# input for lookup
Entry N#CC(=C(\N)Sc1ccccc1N)/C(C#N)=C(/N)Sc1ccccc1N has what inhibition? 0
